Hey, just so you know, these numbers are from patent US9944603B2.

Molecular target: human F508del CFTR (Homo sapiens, UniProt P13569, DEL508-508)
Construct: expressed in transfected cells
Sequence (P13569 with tags, fused parts or gaps DEL508-508): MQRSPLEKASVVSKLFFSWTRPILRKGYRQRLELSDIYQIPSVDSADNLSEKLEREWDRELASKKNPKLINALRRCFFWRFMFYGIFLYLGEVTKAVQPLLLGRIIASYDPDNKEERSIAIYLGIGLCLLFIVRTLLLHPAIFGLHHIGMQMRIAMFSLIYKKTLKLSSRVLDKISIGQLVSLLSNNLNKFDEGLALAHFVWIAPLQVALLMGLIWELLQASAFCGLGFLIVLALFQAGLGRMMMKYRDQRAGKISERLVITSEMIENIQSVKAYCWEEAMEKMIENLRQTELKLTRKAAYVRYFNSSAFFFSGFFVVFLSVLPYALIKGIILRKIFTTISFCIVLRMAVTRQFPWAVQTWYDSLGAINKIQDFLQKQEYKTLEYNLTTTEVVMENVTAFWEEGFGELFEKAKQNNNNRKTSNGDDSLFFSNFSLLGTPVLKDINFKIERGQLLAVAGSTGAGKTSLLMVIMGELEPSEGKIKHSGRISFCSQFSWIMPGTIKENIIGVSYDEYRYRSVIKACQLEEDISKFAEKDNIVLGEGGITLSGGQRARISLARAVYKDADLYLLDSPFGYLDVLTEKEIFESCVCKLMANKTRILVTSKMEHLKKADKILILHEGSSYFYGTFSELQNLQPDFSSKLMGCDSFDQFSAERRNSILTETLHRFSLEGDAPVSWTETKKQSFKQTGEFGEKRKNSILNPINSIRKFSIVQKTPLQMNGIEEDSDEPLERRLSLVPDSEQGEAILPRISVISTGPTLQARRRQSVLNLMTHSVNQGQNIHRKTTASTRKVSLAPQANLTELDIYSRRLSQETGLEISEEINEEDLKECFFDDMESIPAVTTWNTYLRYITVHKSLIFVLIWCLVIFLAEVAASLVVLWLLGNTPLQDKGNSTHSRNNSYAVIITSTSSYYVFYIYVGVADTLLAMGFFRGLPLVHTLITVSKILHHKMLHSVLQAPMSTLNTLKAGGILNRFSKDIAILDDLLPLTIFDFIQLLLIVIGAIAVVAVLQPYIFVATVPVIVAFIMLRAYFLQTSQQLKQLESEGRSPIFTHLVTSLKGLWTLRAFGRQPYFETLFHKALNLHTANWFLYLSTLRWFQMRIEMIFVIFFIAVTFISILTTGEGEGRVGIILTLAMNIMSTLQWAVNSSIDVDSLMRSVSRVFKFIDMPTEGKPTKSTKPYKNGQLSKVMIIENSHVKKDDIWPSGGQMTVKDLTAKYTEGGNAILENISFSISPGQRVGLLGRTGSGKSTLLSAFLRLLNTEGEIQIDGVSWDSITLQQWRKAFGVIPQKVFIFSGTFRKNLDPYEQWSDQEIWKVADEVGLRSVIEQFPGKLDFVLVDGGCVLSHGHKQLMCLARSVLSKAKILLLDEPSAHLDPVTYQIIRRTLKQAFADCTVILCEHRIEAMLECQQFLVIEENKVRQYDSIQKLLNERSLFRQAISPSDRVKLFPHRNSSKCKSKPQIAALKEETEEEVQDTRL
Test: CFTR-YFP Assay, CFTR Corrector Protocol (YFP flux assay)
Assay type: cell-based
Settings: normalized to the positive control, read-out: EMAX (% Efficacy, EMAX normalized to the positive control)
Measured Parameter: Emax

Challenge: Value lookup for Emax; key = CCc1ccc(S(=O)(=O)N2CCC(N(c3ccccn3)S(=O)(=O)c3ccc(Cl)cc3)CC2)cc1 [Example 235]
Response given: 30 to 80%

Challenge: Look up Emax: O=S(=O)(c1ccc2c(c1)OCO2)N1CCC(n2c(-c3ncccc3Cl)nc3cccnc32)CC1 [Example 93]
Response given: 30 to 80%

---

Biological target: human F508del CFTR (Homo sapiens, UniProt P13569, DEL508-508)
Construct: expressed in transfected cells
Test: CFTR-YFP Assay, CFTR Corrector Protocol (YFP flux assay)
Format: cell-based
Conditions: normalized to the positive control, read-out: EMAX (% Efficacy, EMAX normalized to the positive control)
Entries and their Emax values follow.

Please review the entries below; each comes with its answer.
Compound Structure String: COc1ccc(S(=O)(=O)N2CCC(N(c3cccc(C)n3)S(=O)(=O)c3ccccc3Cl)CC2)cc1Cl
Measured Parameter: Emax
Value: 10 to 30%

Compound Structure String: O=S(=O)(c1ccc2c(c1)OC(F)(F)O2)N1CCC(n2c(-c3ccncn3)nc3cccnc32)CC1
Measured Parameter: Emax
Value: 10 to 30%

Compound Structure String: O=S(=O)(c1ccc2c(c1)CCO2)N1CCC(n2c(-c3ccc(F)cc3F)nc3cccnc32)CC1
Measured Parameter: Emax
Value: 30 to 80%

Challenge: Could you share which Emax value was measured for COc1ccc(N(C2CCN(S(=O)(=O)c3ccc4nc(C)oc4c3)CC2)S(=O)(=O)c2ccccc2Cl)nc1 ?
Response given: 10 to 30%

Challenge: Reported Emax for Cc1cccc(N(C2CCN(S(=O)(=O)c3ccc4c(c3)OC(F)(F)O4)CC2)S(=O)(=O)c2ccccc2)n1 : what is it?
Response given: 10 to 30%

Challenge: Which value of Emax has been reported for CCc1ccc(S(=O)(=O)N2CCC(N(c3ccccc3OC)S(=O)(=O)c3ccccc3Cl)CC2)cc1 in the records?
Response given: 10 to 30%

---

Entries and their measured EC50 follow.
Biological target: human F508del CFTR (Homo sapiens, UniProt P13569, DEL508-508)
Experiment: CFTR-YFP Assay, CFTR Corrector Protocol (YFP flux assay)

// known answers, use as guide
Compound: CCc1ccc(S(=O)(=O)N2CCC(n3c(-c4ccc(F)cc4F)nc4cccnc43)CC2)cc1 [Example 47]
Measured Parameter: EC50
Value: < 10 µM

Compound: O=S(=O)(c1ccc2c(c1)CCC2)N1CCC(n2c(-c3ccc(F)cc3F)nc3cccnc32)CC1 [Example 122]
Measured Parameter: EC50
Value: < 10 µM

Compound: CCc1ccc(S(=O)(=O)N2CCC(n3c(-c4cccnc4F)nc4cccnc43)CC2)cc1 [Example 120]
Measured Parameter: EC50
Value: < 10 µM

Compound: O=S(=O)(c1ccc2c(c1)OC(F)(F)O2)N1CCC(n2c(-c3ccccc3)cc3cccnc32)CC1 [Example 99]
Measured Parameter: EC50
Value: < 10 µM

Compound: Cc1ccc2nc(-c3ncccc3Cl)n(C3CCN(S(=O)(=O)c4ccc5c(c4)OC(F)(F)O5)CC3)c2n1 [Example 54]
Measured Parameter: EC50
Value: < 10 µM

Challenge: I am curious: what EC50 value has been reported for COc1ccc2c(c1)nc(-c1ccncc1F)n2C1CCN(S(=O)(=O)c2ccc3c(c2)OC(F)(F)O3)CC1 [Example 150] ?
Response given: 10 to 20 µM

Challenge: Give its EC50 value. Item: CCc1ccc(S(=O)(=O)N2CCC(N(C(=S)c3ccccc3Cl)c3ccc4c(c3)OC(F)(F)O4)CC2)cc1 [Example 212]
Response given: 10 to 20 µM

Challenge: Any idea what its EC50 is? The compound is CCc1ccc(S(=O)(=O)N2CCC(N(C(=S)c3ccccc3Cl)c3ccc(OC)cc3)CC2)cc1 [Example 211]
Response given: 10 to 20 µM

Challenge: Need EC50 of Cc1ccc2nc(-c3ccc(F)cc3)n(C3CCN(S(=O)(=O)c4ccc5c(c4)OC(F)(F)O5)CC3)c2n1 [Example 84] , thanks.
Response given: < 10 µM

Challenge: Would you mind telling me what EC50 value was observed for O=S(=O)(c1ccc2c(c1)OC(F)(F)O2)N1CCC(n2c(-c3ccccc3F)nc3cccnc32)CC1 [Example 130] ?
Response given: < 10 µM

Challenge: For the compound CC(=O)Nc1ccc(S(=O)(=O)N2CCC(n3c(-c4ccccc4)nc4cccnc43)CC2)cc1Cl [Example 70] , what EC50 is on record?
Response given: < 10 µM

Challenge: Dear colleague, I am looking for the recorded EC50 of the following compound: CCc1ccc(S(=O)(=O)N2CCC(N(c3cccc(OC)n3)S(=O)(=O)c3ccccc3Cl)CC2)cc1 [Example 222]
Response given: < 10 µM

Challenge: Requested field: EC50. Item: CC1Cc2cc(S(=O)(=O)N3CCC(n4c(-c5ccc(F)cc5F)nc5cccnc54)CC3)ccc2N1 (stereo not drawn) [Example 149]
Response given: < 10 µM

Challenge: Would you kindly share the measured EC50 for Cc1noc2ccc(S(=O)(=O)N3CCC(n4c(-c5ccncc5F)nc5cccnc54)CC3)cc12 [Example 139] ?
Response given: > 20 µM

Challenge: Reported EC50, compound O=S(=O)(c1ccc2c(c1)OC(F)(F)O2)N1CCC(n2c(-c3ccc(F)cc3F)nc3cccnc32)CC1 [Example 109] : ____
Response given: < 10 µM
